Cited source for all entries: PubChem BioAssay (NCI)

- Test system: T-47D breast
- Assay Overview: NCI tumour cell line growth inhibition, 48 h; in the data active means GI50 below about 0.43 µM; inactive means the rest
Entry note: the call must match one of active, inactive

Assay outcome for Nc1cc2c([nH]c[n+]2CC#CCCl)c(SCC#CCCl)n1 : what was it?
inactive

Please state the recorded outcome for this compound: C=C(C)C(=O)Oc1ccc(N=Nc2ccc(C)cc2)ccc1=O
inactive

// param item: c1ccc(-c2c(-c3ccccc3)[n+](Cc3ccc4ccccc4c3)c(-c3cccc4ccccc34)n2Cc2ccc3ccccc3c2)cc1 ; yields the recorded call
active

Call for entry O=S1CCN(Cc2ccc(-c3ccc4ncnc(Nc5ccc(OCc6cccc(F)c6)c(Cl)c5)c4c3)o2)CC1 :
inactive

Recorded test call requested for NS(=O)(=O)N(c1cc(C(F)(F)F)cc(C(F)(F)F)c1)C1CCN(Cc2ccc(F)cc2)CC1
inactive

Called result for O=C1Nc2ccccc2/C1=C/C(=N/c1nnc(-c2ccccc2)s1)c1ccccc1
inactive

// return assay outcome for CCCCCCCCc1ccc(OCCOCC[N+](C)(C)CC)cc1 (tested in a mixture with another compound)
inactive

Lab log entry: CS(=O)(=O)Nc1cc(-c2ccc3ncnc(Nc4ccc5c(cnn5Cc5cccc(F)c5)c4)c3c2)cnc1Cl — outcome as called in the assay?
active
